src = the supplement of paper PMC10646978

tested on: RAW-Dual (murine macrophage reporter line); assay: IRF reporter (Lucia luciferase) activity fold change vs agonist alone; higher = enhanced IRF activity; settings: modulator concentration 10 µM; agonist: MPLA […]
Record Y whenever IRF reporter is at 1 or higher; record N when lower.

Illustrative cases are given below, each with its answer.
compound=COc1ccc(CN2CCN(c3cc(C)nc4c5c(C)cc(C)nc5nn34)CC2)cc1F group_label=Y
compound=CS(=O)(=O)N1CC(C(=O)N2CCN(c3cccc(Cl)c3Cl)CC2)C1 group_label=N

Reported IRF reporter at or above 1? C[C@H](NC(=O)C(=O)Nc1ccccc1C(C)(C)C)C(=O)N[C@@H](CC(=O)O)C(=O)COc1c(F)c(F)cc(F)c1F Y

Reported IRF reporter at or above 1? CCN(CC)CCN1C(=O)C(O)=C(C(=O)c2ccc(Br)cc2)C1c1ccccc1F (stereo not given) Y

Reported IRF reporter at or above 1? COc1ncc(-c2ccc3nccc(-c4ccnnc4)c3c2)cc1NS(=O)(=O)c1ccc(F)cc1F Y

* * *

tested on: RAW-Dual (murine macrophage reporter line); assay: NF-kB reporter (SEAP) activity fold change vs agonist alone; higher = enhanced NF-kB activity; conditions: modulator concentration 10 µM; agonist: MPLA […]
READOUT KIND: NF-kB reporter

Reference set, count: 4
compound=CC(=O)OC(OC(C)=O)c1ccc([N+](=O)[O-])s1 target_system="RAW-Dual (murine macrophage reporter line)" value_observed=0.156
compound=CCc1cccc(C)c1NC(=O)C(C)(C)CC target_system="RAW-Dual (murine macrophage reporter line)" value_observed=0.911
compound=Cc1cccc(C)c1N(CC(=O)Nc1ccc(-c2ncon2)cc1)C(=O)C1CCS(=O)(=O)CC1 target_system="RAW-Dual (murine macrophage reporter line)" value_observed=1.05
compound=CC(C)(C)C(=O)NCc1cccnc1-c1cccnc1 target_system="RAW-Dual (murine macrophage reporter line)" value_observed=0.892

The record that follows has no NF-kB reporter shown yet.
What value of NF-kB reporter has been reported for the following compound? Cc1cc(=O)n(CC(=O)N2CCC(c3ccccc3F)S(=O)(=O)CC2)cn1 (configuration not stated) 0.953

* * *

This section presents compounds with their documented NF-kB reporter values.
test system: RAW-Dual (murine macrophage reporter line); experiment: NF-kB reporter (SEAP) activity fold change vs agonist alone; higher = enhanced NF-kB activity; conditions: modulator concentration 10 µM; agonist: MPLA […]
Please give the numeric answer without any surrounding text.

Reference set, count: 10
compound=O=C(O)CCC(=O)Nc1ccc(Br)cc1C(=O)c1ccc(Cl)cc1 value_observed=0.951
compound="Cl.Cn1c(=N)n(CC(O)c2ccco2)c2ccccc21 (stereo not drawn)" value_observed=0.969
compound="CC(C)NC(=N)NC(=N)Nc1ccc(Cl)cc1 [Prestw-999]" value_observed=1.27
compound="CCOC(=O)C(C)N(c1ccc(OC)cc1)S(C)(=O)=O (stereo not drawn)" value_observed=0.905
compound=Cc1ccc(S(=O)(=O)Nc2cc(-c3c(O)ccc4ccccc34)c(O)c3ccccc23)cc1 value_observed=1.16
compound=O=[N+]([O-])c1ccc(Cl)c(C=Nc2cccc3c(N=Cc4cc([N+](=O)[O-])ccc4Cl)cccc23)c1 value_observed=0.988
compound=CCCOc1cccc(C(=O)Nc2cccc(S(N)(=O)=O)c2)c1 value_observed=0.945
compound=O=C(Nc1ccc(S(=O)(=O)N2CCOCC2)cc1)c1ccc(Br)s1 value_observed=1.01
compound=COC1CCN(C2CCN(S(=O)(=O)c3ccccc3)CC2)CC1 value_observed=0.977
compound=O=C(Cn1ncccc1=O)N1Cc2cnc(N3CCOCC3)nc2C1 value_observed=0.938

The record that follows has no NF-kB reporter shown yet.
What value of NF-kB reporter has been reported for the following compound? C[C@H](Oc1ccc(S(C)(=O)=O)cc1C(=O)N1CCN(c2ncc(C(F)(F)F)cc2F)CC1)C(F)(F)F 0.936

* * *

tested on: RAW-Dual (murine macrophage reporter line); assay: viability score (confluency relative to resting cells, overnight) (fraction); higher = more viable, active = viable (0.7 or more); conditions: modulator concentration 10 µM
Respond with a class label; see true (1) = active, false (0) = inactive

Illustrative cases are given below, each with its answer.
compound=Cc1nc(NC(=O)N2CCC[C@H]2C(N)=O)sc1-c1ccnc(C(C)(C)C(F)(F)F)c1 group_label="true (1)"
compound=CC12CC3CC(C)(C1)CC(N)(C3)C2 group_label="true (1)"
compound="CC1CCc2c(N3CCC(O)CC3)c(F)cc3c(=O)c(C(=O)O)cn1c23 (configuration not stated)" group_label="true (1)"
compound=CCC(=O)c1c(O)cc(O)cc1O group_label="true (1)"
compound=CNC(=O)Cc1cn(Cc2ccccc2)c2ccccc12 group_label="true (1)"

Test call for this compound, please: CN1CCN(CC(=O)N2c3ccccc3C(=O)Nc3cccnc32)CC1.Cl.Cl true (1)

Test call for this compound, please: NC(=O)NCC(N)C(=O)O (configuration not stated) true (1)

Test call for this compound, please: Brc1ccc2ncnc(NCc3ccco3)c2c1 true (1)

Test call for this compound, please: CC(C)(C)C(=O)Oc1ccc(S(=O)(=O)Nc2ccccc2C(=O)NCC(=O)O)cc1 true (1)

Test call for this compound, please: O=C(NCC1CCCO1)c1[nH]nnc1-c1ccc(F)cc1 (configuration not stated) true (1)

Test call for this compound, please: CCc1c(C)nc(-n2nc(C)cc2NC(=O)CSCc2ccccc2)[nH]c1=O true (1)

Test call for this compound, please: CC(=O)N1CCC(Cn2ccc3cccnc32)CC1 true (1)

Test call for this compound, please: COc1ccc(C2N3CC4(C)CN2CC(C)(C3)C4=O)cc1 (configuration not stated) true (1)

Test call for this compound, please: CCCOc1ccc(C=C2SC(N3CCN(c4ccccc4C)CC3)=NC2=O)cc1 true (1)

Test call for this compound, please: Cc1nc(C(=O)NCC(=O)O)c(O)c2ccc(Oc3ccccc3)cc12 true (1)

Test call for this compound, please: COC(=O)C1=C(C)NC(C)=C(C(=O)OCCN(C)Cc2ccccc2)C1c1cccc([N+](=O)[O-])c1.Cl (configuration not stated) false (0)

Test call for this compound, please: CC(Oc1ccccc1)C(=O)NCc1cc(-c2ccncc2)n(C2CCCC2)n1 (configuration not stated) true (1)

Test call for this compound, please: Cc1[nH]c(/C=C2\C(=O)Nc3ccccc32)c(C)c1CCC(=O)O true (1)

Test call for this compound, please: CCCCCCCCCCCC(CC1OC(=O)C1CCCCCC)OC(=O)C(CC(C)C)NC=O (configuration not stated) true (1)

Test call for this compound, please: CCOC(=O)[C@@H](N)Cc1ccc(-c2cc(O[C@H](c3ccc(Cl)cc3-n3ccc(C)n3)C(F)(F)F)nc(N)n2)cc1.O=C(O)CNC(=O)c1ccccc1 false (0)

Test call for this compound, please: COc1ccc(N(CC(=O)N(C)Cc2ccccc2)S(C)(=O)=O)cc1OC true (1)

Test call for this compound, please: COc1cc2ncnc(Nc3ccc(F)c(Cl)c3)c2cc1OCCCN1CCOCC1.Cl false (0)

* * *

tested on: RAW-Dual (murine macrophage reporter line); experiment: IRF reporter (Lucia luciferase) activity fold change vs agonist alone; higher = enhanced IRF activity; conditions: modulator concentration 10 µM; agonist: MPLA […]
READOUT KIND: IRF reporter
Please give the numeric answer without any surrounding text.

Reference set, count: 3
compound=Cn1cnc2c(F)c(Nc3ccc(Br)cc3F)c(C(=O)NOCCO)cc21 value_observed=1.35
compound=CCC(O)=C(C#N)c1nc2ccccc2n1C value_observed=1.37
compound=Cc1nnc(C)n1N=Cc1ccc(Cl)c([N+](=O)[O-])c1 value_observed=1

What value of IRF reporter has been reported for the following compound? O=S(=O)(Cc1cccc(Cl)c1)N1C2CCC1CC(Oc1cccnc1)C2 (configuration not stated) 1.2

What value of IRF reporter has been reported for the following compound? CC(=O)c1cc(Cl)ccc1OC(=O)c1ccccc1Cl 1.8

* * *

system: RAW-Dual (murine macrophage reporter line); assay: IRF reporter (Lucia luciferase) activity fold change vs agonist alone; higher = enhanced IRF activity; details: modulator concentration 10 µM; agonist: MPLA […]
READOUT KIND: IRF reporter
Please give the numeric answer without any surrounding text.

Reference set, count: 8
molecule=O=C(NCC#CCOc1cccc(C(F)(F)F)c1)Nc1c(F)cccc1F readout_kind="IRF reporter" value_observed=1.15
molecule="Cl.N=c1ccn2c(n1)OC1C(O)C(CO)OC12 (configuration not stated)" readout_kind="IRF reporter" value_observed=0.959
molecule=Cl.c1ccc(CC2=NCCN2)cc1 readout_kind="IRF reporter" value_observed=1.13
molecule=CCn1nccc1C(=O)N1CCN(S(C)(=O)=O)CC1 readout_kind="IRF reporter" value_observed=0.847
molecule=COc1ccc(C=C2C(=O)N(c3ccc(C(=O)O)cc3)N=C2C)cc1 readout_kind="IRF reporter" value_observed=1.21
molecule=NC[C@H]1CC[C@H](C(=O)O)CC1 readout_kind="IRF reporter" value_observed=1.13
molecule="COC(CNC(=O)CSc1ccc(F)cc1)c1ccc(C)s1 (configuration not stated)" readout_kind="IRF reporter" value_observed=1.11
molecule=CCOCC(=O)Nc1ccc(N2CCCCC2=O)c(C)c1 readout_kind="IRF reporter" value_observed=1

Give IRF reporter (RAW-Dual (murine macrophage reporter line)) of the following molecule: O=C(CN(CCc1ccccc1)S(=O)(=O)c1ccc(Cl)cc1)NCc1ccccn1 1.49

Give IRF reporter (RAW-Dual (murine macrophage reporter line)) of the following molecule: COc1ccc(CCNc2cc(C)nc3cc(-c4ccc(OC)c(OC)c4)nn23)cc1OC 1.13

Give IRF reporter (RAW-Dual (murine macrophage reporter line)) of the following molecule: CN1CC(O)C2=C/C(=N/NC(N)=O)C(=O)C=C21 (configuration not stated) 1.24

Give IRF reporter (RAW-Dual (murine macrophage reporter line)) of the following molecule: O=C(NCc1ccco1)C(=Cc1ccc(-c2ccccc2Cl)o1)NC(=O)c1ccccc1 0.942
